B1: ATGL (PNPLA2, patatin-like phospholipase domain-containing protein 2), human, full length / G0S2 (G0/G1 switch protein 2), human (parent)
chain 1: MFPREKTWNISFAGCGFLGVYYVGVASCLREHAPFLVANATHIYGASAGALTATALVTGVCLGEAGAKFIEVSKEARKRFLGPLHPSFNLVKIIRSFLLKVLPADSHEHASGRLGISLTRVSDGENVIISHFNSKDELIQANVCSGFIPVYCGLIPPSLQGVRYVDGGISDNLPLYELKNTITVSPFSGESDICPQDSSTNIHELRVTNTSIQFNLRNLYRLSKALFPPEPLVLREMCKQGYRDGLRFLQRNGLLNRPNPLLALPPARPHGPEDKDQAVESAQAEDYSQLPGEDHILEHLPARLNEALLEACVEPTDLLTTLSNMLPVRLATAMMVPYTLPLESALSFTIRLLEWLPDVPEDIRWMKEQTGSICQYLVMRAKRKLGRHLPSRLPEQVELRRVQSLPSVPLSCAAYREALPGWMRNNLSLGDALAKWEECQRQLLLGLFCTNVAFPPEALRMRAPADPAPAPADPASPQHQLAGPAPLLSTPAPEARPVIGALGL
chain 2: METVQELIPLAKEMMAQKRKGKMVKLYVLGSVLALFGVVLGLMETVCSPFTAARRLRDQEAAVAELQAALERQALQKQALQEKGKQQDTVLGGRALSNRQHAS

Variants of: B1
Assay: LUMIER: Protein A-ATGL variant and firefly luciferase-partner co-expressed in HEK293T, lysates immunoprecipitated on IgG-coated plates, co-precipitated partner measured as luciferase luminescence
Conditions: with G0S2 (G0/G1 switch protein 2), transient co-transfection, IgG-coated LUMITRAC plates, 2 h at 4 °C, three PBS washes, Bright-Glo luciferase reagent, triplicates per assay, two …, parent: 0.56, not graded, scale: log2 fold change of co-immunoprecipitated luminescence relative to wild-type ATGL within each experiment
MEASURED_PROPERTY: screen value

Below, 6 variants whose answers are already recorded.
# MUTATION_KEY, screen value
measured = [
    ("chain 1 R163K", 0.335),
    ("chain 1 P86K", -0.783),
    ("chain 1 K92L", -0.642),
    ("chain 1 G189E", -2.66),
    ("chain 1 F35A", -0.133),
    ("chain 1 R113L", -0.429),
]

Attention now turns to another entry.
-- ask What value of screen value has been reported for the following variant? chain 1 P156K
-- reply -2.45
